- Test System: UniProtKB Q6QLK5
- Sequence (Q6QLK5 whole entry, the tested form may be a part): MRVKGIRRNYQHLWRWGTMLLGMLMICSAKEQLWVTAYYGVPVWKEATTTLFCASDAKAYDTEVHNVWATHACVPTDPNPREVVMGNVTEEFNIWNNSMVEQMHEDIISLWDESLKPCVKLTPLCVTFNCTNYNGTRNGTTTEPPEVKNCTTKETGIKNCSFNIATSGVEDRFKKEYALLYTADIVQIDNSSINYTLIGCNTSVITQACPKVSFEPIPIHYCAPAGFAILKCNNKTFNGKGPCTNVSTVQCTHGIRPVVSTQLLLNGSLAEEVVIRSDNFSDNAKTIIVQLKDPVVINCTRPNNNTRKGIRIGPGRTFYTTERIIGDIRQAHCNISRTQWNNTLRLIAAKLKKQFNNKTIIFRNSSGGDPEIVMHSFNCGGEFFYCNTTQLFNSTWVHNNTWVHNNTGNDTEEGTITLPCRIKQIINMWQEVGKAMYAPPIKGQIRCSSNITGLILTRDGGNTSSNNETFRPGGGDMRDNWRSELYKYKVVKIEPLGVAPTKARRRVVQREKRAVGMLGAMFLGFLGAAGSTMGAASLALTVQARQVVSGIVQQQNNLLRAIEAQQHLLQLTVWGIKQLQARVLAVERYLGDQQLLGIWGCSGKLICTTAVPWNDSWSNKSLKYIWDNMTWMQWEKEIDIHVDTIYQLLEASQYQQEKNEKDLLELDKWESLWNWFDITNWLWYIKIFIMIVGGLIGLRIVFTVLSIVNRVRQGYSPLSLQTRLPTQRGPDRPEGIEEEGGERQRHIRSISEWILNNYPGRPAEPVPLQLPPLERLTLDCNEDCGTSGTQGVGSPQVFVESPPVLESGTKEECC
- Assay Method Text: inhibitors of HIV fusion peptide binding, primary screen, biochemical, uHTS, fluorescence dequenching (AID 1986)
The source made the active and inactive calls. Cut-off read from the data, not from the text of the source: actives have a measured IC50 and inactives only a lower limit.
Some molecules, each annotated with its measured IC50.

O=C(O)c1ccc(Cl)c(S(=O)(=O)Nc2ccccc2C(=O)Nc2ccc(Cl)cc2)c1 ... 17.9 µM (active)
CC(C)c1ccc(OCC(=O)Nc2cccc(C(=O)Nc3ccccc3C(=O)O)c2)cc1 ... 16.9 µM (active)
COc1cc(/C=C2\SC(=O)N(Cc3ccc(F)cc3)C2=O)cc([N+](=O)[O-])c1O ... 19.7 µM (active)
Cc1cccc(OCC(=O)Nc2ccc(C(=O)Nc3ccccc3C(=O)O)cc2)c1C ... 28.3 µM (active)

Let us move to another entry and its IC50.
The observed IC50 for C/C(=N\Nc1ccc(C(=O)O)cc1)c1ccc2c(c1)Nc1ccccc1S2 when tested with UniProtKB Q6QLK5 stands at 15.4 µM (active)
